- target of assay: cdk2
- assay protocol: in vitro cdk2 kinase assay with GST-fusion proteins, histone H1 substrate
- Format: biochemical
- Set-up: key: P=positive; N=negative
- study conditions: 0.1 μg GST-fusion protein, cdk2 immunoprecipitated from NIH/3T3
measured endpoint: Kinase assay (inhibitory effect on cdk2 activity)

**Q:** State the recorded Kinase assay (inhibitory effect on cdk2 activity) for this entry: Spa38: pRb2/p130 amino acids 641 to 702 (62 amino acids long), SEQ ID NO:1 (protein, listed as Homo sapiens) LTPRRVTEVRADTGGLGRSITSPTTLYDRYSSPPASTTRRRLFVENDSPSDGGTPGRMPPQP
**A:** P
